Molecular target: Sodium-dependent noradrenaline transporter (Homo sapiens, UniProt P23975)
Sequence (P23975 whole entry): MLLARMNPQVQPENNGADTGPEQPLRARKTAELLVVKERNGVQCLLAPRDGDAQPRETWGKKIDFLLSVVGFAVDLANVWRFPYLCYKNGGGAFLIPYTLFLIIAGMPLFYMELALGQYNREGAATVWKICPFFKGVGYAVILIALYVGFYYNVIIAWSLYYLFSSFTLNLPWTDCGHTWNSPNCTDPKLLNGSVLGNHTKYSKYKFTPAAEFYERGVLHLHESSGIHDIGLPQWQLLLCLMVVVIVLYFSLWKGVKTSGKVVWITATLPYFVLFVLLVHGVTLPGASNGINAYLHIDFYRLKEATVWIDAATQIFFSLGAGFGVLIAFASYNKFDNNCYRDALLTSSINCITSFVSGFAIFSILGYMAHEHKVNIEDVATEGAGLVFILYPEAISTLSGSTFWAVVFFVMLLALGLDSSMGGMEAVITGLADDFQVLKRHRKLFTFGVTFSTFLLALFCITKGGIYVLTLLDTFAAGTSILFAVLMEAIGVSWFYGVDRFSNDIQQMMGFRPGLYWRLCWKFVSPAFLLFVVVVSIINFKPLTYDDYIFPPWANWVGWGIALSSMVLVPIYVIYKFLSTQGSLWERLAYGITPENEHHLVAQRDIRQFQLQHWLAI
Experiment: Inhibition of norepinephrine reuptake at NET expressed in MDCK cells
metric: IC50 (nM)
Numeric answer only, unit nM assumed.

As a guide, the following entries are already answered.
>>> numeric_value("COc1cccc([C@]23CCCC[C@H]2CN(C)C3)c1 (racemic)")
2450
>>> numeric_value("Clc1ccc([C@]23CCCC[C@H]2CNC3)cc1Cl (racemic)")
112
>>> numeric_value("CN1C[C@@H]2CCC[C@]2(c2ccc3ccccc3c2)C1 (racemic)")
468
>>> numeric_value("CN1C[C@@H]2CCCC[C@]2(c2ccc(Cl)cc2Cl)C1 (racemic)")
912
>>> numeric_value("Clc1ccc([C@]23CCCC[C@@H]2CNC3)cc1Cl (racemic; 19b)")
2140

With those in mind, consider the next compound.
Query: Recall the recorded IC50 for "CN1C[C@H]2CCC[C@@]2(c2ccc3ccccc3c2)C1" with Sodium-dependent noradrenaline transporter (Homo sapiens, UniProt P23975) and state it.
Result: 191
